TESTED SYSTEM: SARS-CoV-2 B.1.1.529 spike trimer variant (SARS-CoV-2 B.1.1.529 (Omicron), UniProt P0DTC2 16-1213)
TEST DETAILS: ELISA
EC50 values, listed per item
METRIC: EC50 (nM)

>  <BINDER>
3-K11-A (antibody, V domains shown) VH: EVQLQQSGPELVKPGASVKMSCKASGYTFTSYVMHWVKQKPGQGLEWIGYINPYNDGTEYNEKFKGKATLTSDKSSSTAYMELSSLTSEDSAVYHCAREAYRYFDVWGTGTTVTVSS VL: DIQMTQSPASLSVSVGETVTITCRASENIYSNLAWYQQKQGKYPQLLVYGATNLADGVPSRFSGSGSGTQYFLKINSLQSEDFGSYYCQHFWGIPWTFGGGTKLEIK

>  <SCALE UNIT>
nM

>  <MEASUREMENT>
20.6

$$$$
>  <BINDER>
8-N24-A (antibody, V domains shown) VH: QVQLQQPGAELVKPGASVKVSCKASGYTFTSYWMHWVKQRPGQGLEWIGRIHPSDSDTNYYQKFKGKATLSVDKSSSTAYMQLSSLTSEDSAVYYCAIPLYSYDNSGGYYPMDYWGQGTSVTVSS VL: DIVMTQSQKFMSTSVGDRVTITCKASQNVRTAVAWYQQKPGQSPKKLIYLASNRHTGVPDRFTGSGSGTDFTLAISNVQSEDLADYFCLQHWNYPFTFGSGTRLEIK

>  <SCALE UNIT>
nM

>  <MEASUREMENT>
4.19

$$$$
>  <BINDER>
6-L8-A (antibody, V domains shown) VH: EVQLQQSVAELVRPGASVKLSCTPSGFNIKNTYMHWMKQRPEQGLEWIGRINPANDDTKYAPKFQDKATITADTSSNTAYLQLSSLTSEDTAIYYCVYDVRWYFDVWGTGTTVTVSS VL: DVVMTQTPLSLPVSLGDQASISCRSSQGLVHSNGNTYLHWYLQKPGQSPKLLIYKVSNRFSGVPDRFSGSGSGTDFTLKISRVEAEDLGVYFCSQSTHVPPTFGAGTKLELK

>  <SCALE UNIT>
nM

>  <MEASUREMENT>
64

$$$$
